Reference for the values: ChEMBL document CHEMBL1147701

# experiment_notes: Percent of unbound drug in human plasma
# Assay type: ADME, organism-based
result_type: fraction unbound

input_smiles=COc1cc2ncnc(Nc3cccc(Cl)c3F)c2cc1CN(C)[C@H](C)C(N)=O result_type="fraction unbound" result_value=0.05
input_smiles=COc1cc2ncnc(Nc3cccc(Cl)c3F)c2cc1CN1CCC[C@H]1C(N)=O result_type="fraction unbound" result_value=0.05
input_smiles=COc1cc2ncnc(Nc3cccc(Cl)c3F)c2cc1CN(C)[C@@H](C)C(N)=O result_type="fraction unbound" result_value=0.05

* * *

Readings of fraction unbound for the listed compounds
# experiment_notes: Percent of unbound drug in dog plasma
# Assay type: ADME, organism-based, Canis lupus familiaris
result_type: fraction unbound

input_smiles=COc1cc2ncnc(Nc3cccc(Cl)c3F)c2cc1CN(C)[C@H](C)C(N)=O result_type="fraction unbound" result_value=0.01
input_smiles=COc1cc2ncnc(Nc3cccc(Cl)c3F)c2cc1CN(C)[C@@H](C)C(N)=O result_type="fraction unbound" result_value=0.01
input_smiles=COc1cc2ncnc(Nc3cccc(Cl)c3F)c2cc1CN1CCC[C@H]1C(N)=O result_type="fraction unbound" result_value=0.01
